- study_target: QuantiLum Luciferase (Photinus pyralis)
- Construct: purchased Promega Corporation E170
- experimental_details: Scaffolds: light emission of luciferin derivatives with QuantiLum luciferase alone, + Co A, + DTT, + Co A and DTT
- Assay type: biochemical, firefly
- condition_info: Derivative Conc. 3.13; Co A + DTT
endpoint_label: light emission values
API doc: respond with a numeric literal and nothing else, no unit.

In the examples that follow, each entry is paired with its recorded light emission values.
NCCCOc1ccc2nc(C3=N[C@@H](C(=O)O)CS3)sc2c1
171233
O=C(O)[C@H]1CSC(c2nc3ccc(OCCO)cc3s2)=N1 [2hydroxyethoxyluciferin ether]
32555

Can you share its light emission values? I mean this compound: COC(=O)[C@H]1CSC(c2ccc3cc(Oc4ccc(C(F)(F)F)cc4[N+](=O)[O-])ccc3n2)=N1
2034

Can you share its light emission values? I mean this compound: COc1ccc2nc(C3=N[C@@H](C(=O)O)CS3)sc2c1 [luciferin 6-methyl ether, D-luciferin 6' methyl ether, reference compound]
2853

---

- study_target: QuantiLum Luciferase (Photinus pyralis, UniProt P08659)
- Construct: purchased Promega Corporation E170
- Sequence (P08659 whole entry): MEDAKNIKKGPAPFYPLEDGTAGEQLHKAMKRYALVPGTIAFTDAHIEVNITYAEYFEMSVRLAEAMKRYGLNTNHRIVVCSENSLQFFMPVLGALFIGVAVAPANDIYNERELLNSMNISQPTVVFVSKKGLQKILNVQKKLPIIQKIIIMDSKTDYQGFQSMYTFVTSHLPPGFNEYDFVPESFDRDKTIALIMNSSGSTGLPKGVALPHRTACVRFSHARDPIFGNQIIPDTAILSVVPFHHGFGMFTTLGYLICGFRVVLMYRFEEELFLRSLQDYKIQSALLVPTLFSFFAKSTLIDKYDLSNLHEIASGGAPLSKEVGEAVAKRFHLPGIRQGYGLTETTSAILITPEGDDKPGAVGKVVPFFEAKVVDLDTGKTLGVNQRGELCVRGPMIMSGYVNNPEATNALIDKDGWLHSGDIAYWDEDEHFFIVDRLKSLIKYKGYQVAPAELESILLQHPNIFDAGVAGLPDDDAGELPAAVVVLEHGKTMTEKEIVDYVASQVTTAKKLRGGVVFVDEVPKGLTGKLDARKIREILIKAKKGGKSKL
- experimental_details: Scaffolds: light emission of luciferin derivatives with QuantiLum luciferase alone, + Co A, + DTT, + Co A and DTT
- Assay type: biochemical, firefly
- condition_info: Derivative Conc. 12.5; Co A
Consider the cut-off 500000. If the recorded light emission values is strictly smaller, the label is rule met; if not, the label is rule not met.

Please review the entries below; each comes with its answer.
NCCCOc1ccc2nc(C3=N[C@@H](C(=O)O)CS3)sc2c1 [MAO-3, 6-Aminopropoxyluciferin]
rule met
O=C(O)[C@H]1CSC(c2ccc3cc(Oc4ccc(C(F)(F)F)cc4[N+](=O)[O-])ccc3n2)=N1 [GST #3]
rule met

Just wondering, is light emission values of O=C(O)[C@H]1CSC(c2nc3ccc(OCCO)cc3s2)=N1 [2hydroxyethoxyluciferin ether] below 500000?
rule met

Just wondering, is light emission values of COc1ccc2nc(C3=N[C@@H](C(=O)O)CS3)sc2c1 [luciferin 6-methyl ether, D-luciferin 6' methyl ether, reference compound] below 500000?
rule met

Just wondering, is light emission values of CN(Cc1ccccc1)c1ccc2nc(C3=NC(C(=O)O)CS3)sc2c1 (centres unmarked) [methylbenzylaminoluciferin] below 500000?
rule not met

Just wondering, is light emission values of O=C(O)[C@H]1CSC(c2nc3ccc(OCc4ccccc4)cc3s2)=N1 [luciferin 6-benzyl ether, reference compound] below 500000?
rule met

Just wondering, is light emission values of COC(=O)[C@H]1CSC(c2ccc3cc(Oc4ccc(C(F)(F)F)cc4[N+](=O)[O-])ccc3n2)=N1 [GST #4] below 500000?
rule met

Just wondering, is light emission values of CCN(CC)c1ccc2nc(C3=NC(C(=O)O)CS3)sc2c1 (centres unmarked) [diethylaminoluciferin] below 500000?
rule not met

---

- study_target: QuantiLum Luciferase (Photinus pyralis)
- Construct: purchased Promega Corporation E170
- experimental_details: Scaffolds: light emission of luciferin derivatives with QuantiLum luciferase alone, + Co A, + DTT, + Co A and DTT
- Format: biochemical, firefly
- condition_info: Derivative Conc. 100; Co A + DTT
Reported light emission values by item:
API doc: respond with a numeric literal and nothing else, no unit.

In the examples that follow, each entry is paired with its recorded light emission values.
O=C(O)[C@H]1CSC(c2nc3ccc(OCCO)cc3s2)=N1 [2hydroxyethoxyluciferin ether]
94724
CCN(CC)c1ccc2nc(C3=NC(C(=O)O)CS3)sc2c1 (stereo not shown) [diethylaminoluciferin]
1960750
COc1ccc2nc(C3=N[C@@H](C(=O)O)CS3)sc2c1 [luciferin 6-methyl ether, D-luciferin 6' methyl ether, reference compound]
4550

Any idea what light emission values came out for O=C(O)[C@H]1CSC(c2ccc3cc(Oc4ccc(C(F)(F)F)cc4[N+](=O)[O-])ccc3n2)=N1 [GST #3] on QuantiLum Luciferase (Photinus pyralis)?
19129
